Record form. Attribute: protease stability score. Fill in for each entry.
# run_description: protease stability score; higher = more stable; yeast display proteolysis, trypsin and chymotrypsin;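 further: log10 excess protease needed over predicted unfolded state with 0 meaning unfolded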

query: Let me know recorded protease stability score for DDHRAKQAVKAWTDNNPDNLRELFDKNVRVEIGEFTLHGREDAQSMVQRLHSRADHVEYKDIKVSNGRINIDVVYMVDGHRVRATIHLTIENGRLKSMEVRFTSEEDQKKAKRAFE , thanks.
result: 0.09

query: Let me know recorded protease stability score for DEDLRRQAETMVDNINTNNERELEKLFDPNVHVVVGDRRINGTEHLRDYWRRIRDHMRLEVNLRRISVHNGKISAHVDVVREHNGKPDEDTFRMSAVVRNGKFHKMRVEKDG , thanks.
result: 1.37

query: Let me know recorded protease stability score for DEDRYRRKIEEVFKQVENGDEKKMKKDLKENVKYKYADKEKEGPEVAEHIVKVVKKIGAEVTRKEQEVKGDTLRAKFQYRKGDQTVRTEAEATYEGDQAKEVRVKMTDEVKKIVHQG , thanks.
result: 0.05

This collection of values is drawn from the NTF2 design screens of Basanta et al. (2020).
